# z-score per record follows
- assay-info: CREB reporter modulators under forskolin, primary screen, cell-based, PC12, CRE-LacZ reporter, forskolin-stimulated (AID 1146);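 further: PC12 cells with 6xCRE LacZ reporter stimulated by forskolin 10 µM; beta-galactosidase reporter signal reflecting CREB driven transcription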
- study-conditions: luminescence, 4.5 h, higher = more signal, called active from +8 up or from −8 down
I only need the number, thanks.

Illustrative cases are given below, each with its answer.
compound	z-score
CC(=O)OC[C@H]1O[C@H](CC=NOC(C)CN2CCCCc3nc(C)c(C)cc32)C=C[C@@H]1OC(C)=O (some centres undefined)	0.278
C[C@H]1CC[C@H]2C(=O)OC(COc3ccc(C(C)(C)C)cc3)CN2[C@@H]1c1ccc(Br)cc1 (some centres undefined)	-1.04
COCOc1ccc(Br)cc1C(=O)C=Cc1ccc2c(c1)OCO2	5.69

Then this compound:
Input line: Can you share its z-score? I mean this compound: `C[C@@H]1CC[C@H]2C(=O)O[C@@H](COc3ccc(C(C)(C)C)cc3)CN2[C@H]1c1ccc(Br)cc1`
Output line: 0.213
